experiment: Cytotoxicity against human MT4 cells assessed as reduction in cell viability after 5 days by MTT assay; assay type: cell-based; conditions: time 5 day
Below, each entry is listed with its recorded CC50 at 120 h.

- compound: "Cc1cc(C#N)cc(C)c1Oc1nc(NC2CCN(Cc3cn(Cc4ccccc4[N+](=O)[O-])nn3)CC2)nc2ccsc12"
  CC50 at 120 h: "7.66 µM"
- compound: "Cc1cc(C#N)cc(C)c1Oc1nc(NC2CCN(Cc3cn(CC(=O)N4CCOCC4)nn3)CC2)nc2ccsc12"
  CC50 at 120 h: "> 212 µM"
- compound: "Cc1cc(-c2cn(CCc3ccsc3)nn2)cc(C)c1Oc1nc(NC2CCN(Cc3ccc(S(N)(=O)=O)cc3)CC2)nc2ccsc12"
  CC50 at 120 h: "11.7 µM"
- compound: "O=C1Nc2ccc(Cl)cc2[C@@](C#CC2CC2)(C(F)(F)F)O1 [EFAVIRENZ]"
  CC50 at 120 h: "> 6.38 µM"
- compound: "Cc1cc(C#N)cc(C)c1Oc1nc(NC2CCN(Cc3cn(Cc4ccc(C(N)=O)cc4)nn3)CC2)nc2ccsc12"
  CC50 at 120 h: "> 210 µM"
- compound: "Cc1cc(C#N)cc(C)c1Oc1nc(NC2CCN(Cc3cn(CC(=O)Nc4ccc(S(C)(=O)=O)cc4)nn3)CC2)nc2ccsc12"
  CC50 at 120 h: "19.8 µM"
- compound: "Cc1ccnc2c1NC(=O)c1cccnc1N2C1CC1 [NEVIRAPINE]"
  CC50 at 120 h: "> 9.51 µM"
- compound: "Cc1cc(C#N)cc(C)c1Oc1nc(NC2CCN(Cc3ccc(S(N)(=O)=O)cc3)CC2)nc2ccsc12"
  CC50 at 120 h: "> 227 µM"

====

experiment: Selectivity index, ratio of CC50 for cytotoxicity against human MT4 cells to EC50 for antiviral activity against HIV1 RES056 infected in human MT4 cells; assay type: toxicity, cell-based; conditions: read-out: Ratio CC50/EC50
Measured selectivity ratio, listed per entry.
property-measured: selectivity ratio

- smiles-data: "Cc1cc(-c2cn(CCc3ccsc3)nn2)cc(C)c1Oc1nc(NC2CCN(Cc3ccc(S(N)(=O)=O)cc3)CC2)nc2ccsc12"
  comparison-operator: "="
  reported: 1.88
- smiles-data: "Cc1cc(C#N)cc(C)c1Oc1nc(NC2CCN(Cc3cn(Cc4ccc(C(N)=O)cc4)nn3)CC2)nc2ccsc12"
  comparison-operator: ">"
  reported: 437
- smiles-data: "Cc1cc(C#N)cc(C)c1Oc1nc(NC2CCN(Cc3cn(Cc4ccc(C#N)cc4)nn3)CC2)nc2ccsc12"
  comparison-operator: "="
  reported: 6
- smiles-data: "Cc1cc(C#N)cc(C)c1Oc1nc(NC2CCN(Cc3cn(Cc4ccccc4C#N)nn3)CC2)nc2ccsc12"
  comparison-operator: "="
  reported: 6
- smiles-data: "Cc1cc(C#N)cc(C)c1Oc1nc(NC2CCN(Cc3cn(Cc4ccc(S(N)(=O)=O)cc4)nn3)CC2)nc2ccsc12"
  comparison-operator: "="
  reported: 31
- smiles-data: "Cc1cc(C#N)cc(C)c1Oc1nc(NC2CCN(Cc3cn([C@H]4C[C@H](n5cc(C)c(=O)[nH]c5=O)O[C@@H]4CO)nn3)CC2)nc2ccsc12"
  comparison-operator: "="
  reported: 14
- smiles-data: "Cc1cc(C#N)cc(C)c1Oc1nc(Nc2ccc(C#N)cc2)nc(N)c1Br"
  comparison-operator: ">"
  reported: 101

====

test: Selectivity index, ratio of CC50 for cytotoxicity against human MT4 cells to EC50 for antiviral activity against HIV1 3B infected in human MT4 cells; type: toxicity, cell-based; conditions: read-out: Ratio CC50/EC50
property-measured: selectivity ratio

- smiles-data: "Cc1cc(C#N)cc(C)c1Oc1nc(NC2CCN(Cc3ccc(S(N)(=O)=O)cc3)CC2)nc2ccsc12"
  comparison-operator: ">"
  reported: 159000
- smiles-data: "Cc1cc(C#N)cc(C)c1Oc1nc(NC2CCN(Cc3cn(Cc4ccccc4C#N)nn3)CC2)nc2ccsc12"
  comparison-operator: "="
  reported: 2440
- smiles-data: "Cc1cc(C#N)cc(C)c1Oc1nc(NC2CCN(Cc3cn(Cc4ccc(C#N)cc4)nn3)CC2)nc2ccsc12"
  comparison-operator: "="
  reported: 525
- smiles-data: "Cc1cc(C#N)cc(C)c1Oc1nc(NC2CCN(Cc3cn(CC(=O)N4CCOCC4)nn3)CC2)nc2ccsc12"
  comparison-operator: ">"
  reported: 48500
- smiles-data: "Cc1cc(-c2cn(CC(=O)N3CCCC3)nn2)cc(C)c1Oc1nc(NC2CCN(Cc3ccc(S(N)(=O)=O)cc3)CC2)nc2ccsc12"
  comparison-operator: "="
  reported: 682
- smiles-data: "Cc1cc(C#N)cc(C)c1Oc1nc(NC2CCN(Cc3cn(Cc4ccc(C(N)=O)cc4)nn3)CC2)nc2ccsc12"
  comparison-operator: ">"
  reported: 64100
- smiles-data: "Cc1cc(C#N)cc(C)c1Oc1nc(NC2CCN(Cc3cn(Cc4ccc(S(N)(=O)=O)cc4)nn3)CC2)nc2ccsc12"
  comparison-operator: "="
  reported: 3880
- smiles-data: "Cc1cc(C#N)cc(C)c1Oc1nc(NC2CCN(Cc3cn(Cc4ccccc4[N+](=O)[O-])nn3)CC2)nc2ccsc12"
  comparison-operator: "="
  reported: 1250
- smiles-data: "Cc1ccc(Cn2cc(CN3CCC(Nc4nc(Oc5c(C)cc(C#N)cc5C)c5sccc5n4)CC3)nn2)cc1"
  comparison-operator: "="
  reported: 650
- smiles-data: "Cc1cc(-c2cn(CCc3ccsc3)nn2)cc(C)c1Oc1nc(NC2CCN(Cc3ccc(S(N)(=O)=O)cc3)CC2)nc2ccsc12"
  comparison-operator: "="
  reported: 552
- smiles-data: "Cc1cc(C#N)cc(C)c1Oc1nc(NC2CCN(Cc3cn([C@H]4C[C@H](n5cc(C)c(=O)[nH]c5=O)O[C@@H]4CO)nn3)CC2)nc2ccsc12"
  comparison-operator: "="
  reported: 1800
- smiles-data: "Cc1ccnc2c1NC(=O)c1cccnc1N2C1CC1"
  comparison-operator: ">"
  reported: 58
- smiles-data: "Cc1cc(C#N)cc(C)c1Oc1nc(Nc2ccc(C#N)cc2)nc(N)c1Br"
  comparison-operator: ">"
  reported: 889
- smiles-data: "Cc1cc(C#N)cc(C)c1Oc1nc(NC2CCN(Cc3cn(CC(=O)Nc4ccc(S(C)(=O)=O)cc4)nn3)CC2)nc2ccsc12"
  comparison-operator: "="
  reported: 2970
- smiles-data: "Cc1cc(-c2cn(Cc3ccc(Cl)cc3)nn2)cc(C)c1Oc1nc(NC2CCN(Cc3ccc(S(N)(=O)=O)cc3)CC2)nc2ccsc12"
  comparison-operator: "="
  reported: 108

====

test: Selectivity index, ratio of CC50 for cytotoxicity against human MT4 cells to EC50 for antiviral activity against HIV1 RES056 infected in human MT4 cells; format: toxicity, cell-based; details: read-out: Ratio CC50/EC50

- smiles-data: "Cc1cc(-c2cn(Cc3ccc(Cl)cc3)nn2)cc(C)c1Oc1nc(NC2CCN(Cc3ccc(S(N)(=O)=O)cc3)CC2)nc2ccsc12"
  comparison-operator: "<"
  selectivity ratio: 1
- smiles-data: "Cc1cc(C#N)cc(C)c1Oc1nc(NC2CCN(Cc3ccc(S(N)(=O)=O)cc3)CC2)nc2ccsc12"
  comparison-operator: ">"
  selectivity ratio: 7420
- smiles-data: "Cc1cc(C#N)cc(C)c1Oc1nc(NC2CCN(Cc3cn(Cc4ccccc4[N+](=O)[O-])nn3)CC2)nc2ccsc12"
  comparison-operator: "="
  selectivity ratio: 7
- smiles-data: "Cc1ccc(Cn2cc(CN3CCC(Nc4nc(Oc5c(C)cc(C#N)cc5C)c5sccc5n4)CC3)nn2)cc1"
  comparison-operator: "<"
  selectivity ratio: 1
- smiles-data: "Cc1cc(C#N)cc(C)c1Oc1nc(NC2CCN(Cc3cn(CC(=O)N4CCOCC4)nn3)CC2)nc2ccsc12"
  comparison-operator: ">"
  selectivity ratio: 48
- smiles-data: "Cc1cc(-c2cn(CC(=O)N3CCCC3)nn2)cc(C)c1Oc1nc(NC2CCN(Cc3ccc(S(N)(=O)=O)cc3)CC2)nc2ccsc12"
  comparison-operator: "="
  selectivity ratio: 3
- smiles-data: "Cc1cc(C#N)cc(C)c1Oc1nc(NC2CCN(Cc3cn(CC(=O)Nc4ccc(S(C)(=O)=O)cc4)nn3)CC2)nc2ccsc12"
  comparison-operator: "="
  selectivity ratio: 10

====

biological target: Human immunodeficiency virus type 1 reverse transcriptase (Human immunodeficiency virus 1) (UniProt Q72547); experiment: Inhibition of HIV-1 reverse transcriptase assessed as reduction in biotin-dUTP incorporation in to cDNA chain at 0.267 uM in presence of DIG-dUTP, biotin-dUTP and dTTP measured after 1 hr by ELISA relative to control
Listing of entries alongside the reported inhibition.

- compound: "Cc1cc(C#N)cc(C)c1Oc1nc(Nc2ccc(C#N)cc2)nc(N)c1Br [ETRAVIRINE]"
  unit-label: "%"
  inhibition: 32.7
- compound: "Cc1cc(C#N)cc(C)c1Oc1nc(NC2CCN(Cc3ccc(S(N)(=O)=O)cc3)CC2)nc2ccsc12"
  unit-label: "%"
  inhibition: 44
- compound: "Cc1cc(C#N)cc(C)c1Oc1nc(NC2CCN(C(=O)c3cn(CC(=O)Nc4ccccc4)nn3)CC2)nc2ccsc12"
  unit-label: "%"
  inhibition: 80.2
- compound: "Cc1cc(C#N)cc(C)c1Oc1nc(NCCc2cn(Cc3ccc(C(N)=O)cc3)nn2)nc2ccsc12"
  unit-label: "%"
  inhibition: 71.1
- compound: "Cc1ccccc1Cn1cc(C(=O)N2CCC(Nc3nc(Oc4c(C)cc(C#N)cc4C)c4sccc4n3)CC2)nn1"
  unit-label: "%"
  inhibition: 75.8
- compound: "Cc1cc(C#N)cc(C)c1Oc1nc(NCCc2cn(Cc3ccc(S(N)(=O)=O)cc3)nn2)nc2ccsc12"
  unit-label: "%"
  inhibition: 72.4
- compound: "Cc1cc(C#N)cc(C)c1Oc1nc(NC2CCN(Cc3cn(CC(=O)Nc4ccc(S(C)(=O)=O)cc4)nn3)CC2)nc2ccsc12"
  unit-label: "%"
  inhibition: 60.1
- compound: "Cc1cccc(Cn2cc(CCNc3nc(Oc4c(C)cc(C#N)cc4C)c4sccc4n3)nn2)c1"
  unit-label: "%"
  inhibition: 91.8
